Form field: IC50 at 3 days (one value per entry).
assay: Cytotoxicity against human HMEC cells assessed as inhibition of cell viability incubated for 3 days by AlamarBlue based fluorescence analysis
Reply with just the number (in µM).

Enquiry: Field request: IC50 at 3 days | item: Nc1ccc(-c2cccs2)cc1NC(=O)c1ccc(-c2cn(CS(=O)(=O)c3ccccc3)nn2)cc1
Return: 9.85

Enquiry: Field request: IC50 at 3 days | item: Nc1ccc(-c2cccs2)cc1NC(=O)c1ccc(-c2cn(CCc3ccccn3)nn2)cc1
Return: 4.35

====

biological target: Histone deacetylase 2 (Homo sapiens, UniProt Q92769); test: Inhibition of full-length recombinant human C-terminal GST tagged HDAC2 expressed in Sf9 insect cells using aminoluciferin peptide substrate at 100 nM preincubated for 3 hrs followed by substrate addition and measured after 30 mins by HDAC-Glo I/II chemiluminescence assay; details: time 3.5 hrs
Sequence (Q92769 whole entry): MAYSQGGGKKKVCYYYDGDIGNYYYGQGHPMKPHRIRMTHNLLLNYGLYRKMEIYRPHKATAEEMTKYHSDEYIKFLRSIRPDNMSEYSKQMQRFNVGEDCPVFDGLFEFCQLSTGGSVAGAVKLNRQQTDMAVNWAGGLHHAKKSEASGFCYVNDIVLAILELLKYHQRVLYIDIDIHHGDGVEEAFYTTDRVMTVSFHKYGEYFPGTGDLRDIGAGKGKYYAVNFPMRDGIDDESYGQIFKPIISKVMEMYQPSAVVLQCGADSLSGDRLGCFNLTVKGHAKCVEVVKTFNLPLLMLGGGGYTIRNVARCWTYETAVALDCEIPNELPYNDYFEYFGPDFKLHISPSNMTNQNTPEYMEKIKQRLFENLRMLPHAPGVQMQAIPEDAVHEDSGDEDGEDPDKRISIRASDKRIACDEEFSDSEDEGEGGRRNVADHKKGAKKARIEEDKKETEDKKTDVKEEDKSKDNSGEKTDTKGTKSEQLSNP
Form field: inhibition (one value per entry).
Reply with just the number (in %).

Past entries and their recorded results:
Nc1ccc(-c2ccc(F)cc2)cc1NC(=O)CCc1cn(CC23CC4CC(CC(C4)C2)C3)nn1; 0
Nc1ccc(-c2cccnc2)cc1NC(=O)CCc1cn(CCc2cccc(F)c2)nn1; 13
Nc1ccc(-c2ccccc2)cc1NC(=O)c1cn(Cc2nc3ccccc3[nH]2)nn1; 11
Nc1ccc(-c2cccs2)cc1NC(=O)c1cccc(-c2cn(Cc3cccc(C(=O)O)c3)nn2)c1; 17
Nc1ccc(-c2ccsc2)cc1NC(=O)CCc1cn(CCc2ccccc2)nn1; 43
Nc1ccc(-c2ccsc2)cc1NC(=O)CCc1cn(CCc2cccc(Cl)c2)nn1; 15
Nc1ccc(-c2ccc(F)cc2)cc1NC(=O)c1cn(Cc2cccc(C(=O)O)c2)nn1; 0
Nc1ccc(-c2cccnc2)cc1NC(=O)CCc1cn(CCc2ccc([N+](=O)[O-])cc2)nn1; 3
Nc1ccc(-c2ccc(F)cc2)cc1NC(=O)CCc1cn(Cc2ccc(Oc3ccccc3)cc2)nn1; 0
Nc1ccc(-c2ccsc2)cc1NC(=O)c1cn(CCc2ccc([N+](=O)[O-])cc2)nn1; 0

Enquiry: Field request: inhibition | item: Cc1cccc(C)c1NC(=O)Cn1cc(C(=O)Nc2cc(-c3ccccc3)ccc2N)nn1
Return: 9

Enquiry: Field request: inhibition | item: Nc1ccc(-c2ccccc2)cc1NC(=O)CCc1cn(Cc2ccc(-c3ccccc3)cc2)nn1
Return: 0

Enquiry: Field request: inhibition | item: COc1ccc(CCn2cc(C(=O)Nc3cc(-c4ccccc4)ccc3N)nn2)cc1
Return: 0

Enquiry: Field request: inhibition | item: Nc1ccc(-c2cccs2)cc1NC(=O)c1cccc(-c2cn(CCc3ccc(Cl)cc3)nn2)c1
Return: 0

Enquiry: Field request: inhibition | item: Nc1ccc(-c2cccs2)cc1NC(=O)c1cccc(-c2cn(CCc3cccc(C(F)(F)F)c3)nn2)c1
Return: 0

Enquiry: Field request: inhibition | item: COc1ccc(CCn2cc(CCC(=O)Nc3cc(-c4ccc(F)cc4)ccc3N)nn2)cc1
Return: 34

Enquiry: Field request: inhibition | item: Nc1ccc(-c2cccs2)cc1NC(=O)c1cccc(-c2cn(/C=C/c3ccccc3)nn2)c1
Return: 10

Enquiry: Field request: inhibition | item: Nc1ccc(-c2cccs2)cc1NC(=O)c1ccc(-c2cn(Cc3ccc4ccccc4n3)nn2)cc1
Return: 52

Enquiry: Field request: inhibition | item: Nc1ccc(-c2ccc(F)cc2)cc1NC(=O)CCc1cn(Cc2cccc(-c3ccccc3)c2)nn1
Return: 0

====

Form field: inhibition (one value per entry).
target: Histone deacetylase 2 (Homo sapiens, UniProt Q92769); assay: Inhibition of full-length recombinant human C-terminal GST tagged HDAC2 expressed in Sf9 insect cells using aminoluciferin peptide substrate at 100 nM preincubated for 3 hrs followed by substrate addition and measured after 30 mins by HDAC-Glo I/II chemiluminescence assay; conditions: time 3.5 hrs
Reply with just the number (in %).

Nc1ccc(-c2cccs2)cc1NC(=O)c1ccc(-c2cn(CCc3cccc4ccccc34)nn2)s1; 0
Nc1ccc(-c2cccs2)cc1NC(=O)c1cn(CCc2cccc3ccccc23)nn1; 0
Nc1ccc(-c2ccccc2)cc1NC(=O)CCc1cn(CCc2c[nH]c3ccccc23)nn1; 20
Nc1ccc(-c2ccsc2)cc1NC(=O)c1cn(CCC2CCCCC2)nn1; 0
Nc1ccc(-c2cccnc2)cc1NC(=O)CCc1cn(CCCCC(=O)O)nn1; 0
Nc1ccc(-c2ccc(F)cc2)cc1NC(=O)c1cn(CCC23CC4CC(CC(C4)C2)C3)nn1; 2

Read the next record carefully.
Enquiry: Field request: inhibition | item: Nc1ccc(-c2ccsc2)cc1NC(=O)CCc1cn(CS(=O)(=O)c2ccccc2)nn1
Return: 14

====

target: Histone deacetylase 2 (Homo sapiens); experiment: Inhibition of full-length recombinant human C-terminal GST tagged HDAC2 expressed in Sf9 insect cells using aminoluciferin peptide substrate at 100 nM preincubated for 3 hrs followed by substrate addition and measured after 30 mins by HDAC-Glo I/II chemiluminescence assay; details: time 3.5 hrs
Form field: inhibition (one value per entry).
Reply with just the number (in %).

Past entries and their recorded results:
Nc1ccc(-c2ccccc2)cc1NC(=O)c1cn(C[S+]([O-])c2ccccc2)nn1 (centres undefined); 0
Nc1ccc(-c2ccsc2)cc1NC(=O)c1cn(CCc2ccc(Cl)cc2)nn1; 0
Nc1ccc(-c2cccs2)cc1NC(=O)c1cn(Cc2nc3ccccc3[nH]2)nn1; 20

Enquiry: Field request: inhibition | item: Nc1ccc(-c2ccccc2)cc1NC(=O)CCc1cn(CCc2ccc(Cl)cc2)nn1
Return: 0

Enquiry: Field request: inhibition | item: Nc1ccc(-c2cccnc2)cc1NC(=O)CCc1cn(CCc2ccc(C(F)(F)F)cc2)nn1
Return: 0

Enquiry: Field request: inhibition | item: Nc1ccc(-c2cccs2)cc1NC(=O)c1ccc(-c2cn(CCc3ccc(C(=O)O)cc3)nn2)cc1
Return: 46

Enquiry: Field request: inhibition | item: Nc1ccc(-c2ccccc2)cc1NC(=O)CCc1cn(-c2ccc([N+](=O)[O-])cc2)nn1
Return: 0

Enquiry: Field request: inhibition | item: CCc1ccc(Cn2cc(C(=O)Nc3cc(-c4ccsc4)ccc3N)nn2)cc1
Return: 0

Enquiry: Field request: inhibition | item: Nc1ccc(-c2ccccc2)cc1NC(=O)c1cn(CCc2ccc(-c3ccccc3)cc2)nn1
Return: 0

Enquiry: Field request: inhibition | item: Nc1ccc(-c2ccc(F)cc2)cc1NC(=O)c1cn(/C=C/c2ccccc2)nn1
Return: 3

Enquiry: Field request: inhibition | item: COc1ccc(Cn2cc(CCC(=O)Nc3cc(-c4ccccc4)ccc3N)nn2)cc1
Return: 6

Enquiry: Field request: inhibition | item: Nc1ccc(-c2ccsc2)cc1NC(=O)CCc1cn(CCCCCc2ccccc2)nn1
Return: 5

Enquiry: Field request: inhibition | item: Nc1ccc(-c2cccs2)cc1NC(=O)c1cn(CCN2CCc3ccccc3C2)nn1
Return: 18

Enquiry: Field request: inhibition | item: Nc1ccc(-c2cccs2)cc1NC(=O)c1cn(Cc2cccc3ccccc23)nn1
Return: 13

Enquiry: Field request: inhibition | item: Nc1ccc(-c2cccs2)cc1NC(=O)c1ccc(-c2cn(-c3ccc([N+](=O)[O-])cc3)nn2)cc1
Return: 4

Enquiry: Field request: inhibition | item: COc1ccccc1CCn1cc(CCC(=O)Nc2cc(-c3cccnc3)ccc2N)nn1
Return: 10

Enquiry: Field request: inhibition | item: Cc1cccc(C)c1NC(=O)Cn1cc(-c2ccc(C(=O)Nc3cc(-c4cccs4)ccc3N)s2)nn1
Return: 48

====

target: Histone deacetylase 2 (Homo sapiens, UniProt Q92769); assay: Inhibition of full-length recombinant human C-terminal GST tagged HDAC2 expressed in Sf9 insect cells using aminoluciferin peptide substrate at 100 nM preincubated for 3 hrs followed by substrate addition and measured after 30 mins by HDAC-Glo I/II chemiluminescence assay; conditions: time 3.5 hrs
measurement.type: inhibition (%)
Reply with just the number (in %).

Past entries and their recorded results:
Cc1csc(CCn2cc(CCC(=O)Nc3cc(-c4ccsc4)ccc3N)nn2)n1; 39
Cc1ccc(CCn2cc(-c3ccc(C(=O)Nc4cc(-c5cccs5)ccc4N)s3)nn2)cc1; 22
Nc1ccc(-c2cccs2)cc1NC(=O)c1cn(CCc2cccc([N+](=O)[O-])c2)nn1; 13

Enquiry: Field request: inhibition | item: CCc1ccc(Cn2cc(-c3ccc(C(=O)Nc4cc(-c5cccs5)ccc4N)s3)nn2)cc1
Return: 2

Enquiry: Field request: inhibition | item: Nc1ccc(-c2cccs2)cc1NC(=O)c1ccc(-c2cn(CCc3cccc(C(F)(F)F)c3)nn2)s1
Return: 0

====

molecular target: Histone deacetylase 2 (Homo sapiens); experiment: Inhibition of full-length recombinant human C-terminal GST tagged HDAC2 expressed in Sf9 insect cells using aminoluciferin peptide substrate at 100 nM preincubated for 3 hrs followed by substrate addition and measured after 30 mins by HDAC-Glo I/II chemiluminescence assay; conditions: time 3.5 hrs
measurement.type: inhibition (%)
Reply with just the number (in %).

Nc1ccc(-c2ccc(F)cc2)cc1NC(=O)c1cn(-c2ccccc2-c2ccccc2)nn1; 19
Nc1ccc(-c2ccsc2)cc1NC(=O)c1cn(CCc2cccc(Cl)c2)nn1; 0

Enquiry: Field request: inhibition | item: Nc1ccc(-c2ccc(F)cc2)cc1NC(=O)c1cn(CCCCCC(=O)O)nn1
Return: 20

Enquiry: Field request: inhibition | item: Nc1ccc(-c2ccc(F)cc2)cc1NC(=O)c1cn(CCc2ccccc2[N+](=O)[O-])nn1
Return: 12

Enquiry: Field request: inhibition | item: Nc1ccc(-c2ccccc2)cc1NC(=O)CCc1cn(Cc2cccc(C(=O)O)c2)nn1
Return: 0
